- experimental-target: Mouse TLR7 (Mus musculus)
- Construct: endogenous in cells; host or cells: female BALB/c mice, in vivo
- measurement-protocol: Short-term in vivo (STIV) assay: plasma IL-6 after s.c. R848
- study-conditions: time point 13 hr; dose 33 mg/kg oral

| chemical-string | experimental-target | readout-unit | % Suppression vs. Vehicle |
| --- | --- | --- | --- |
| COc1ccc([C@@H]2C[C@H](C(F)(F)F)n3nc(C4CCNCC4)cc3N2)cc1OC | Mouse TLR7 (Mus musculus) | % | 0 |
| COc1ccc([C@@H]2C[C@H](C(F)(F)F)n3nc(-c4ccc(C(=O)N5CCNCC5)cc4)cc3N2)cc1OC | Mouse TLR7 (Mus musculus) | % | 12 |
| Cc1nn(C)cc1[C@@H]1C[C@H](C(F)(F)F)n2nc(-c3ccc(NC(N)=O)cc3)cc2N1 | Mouse TLR7 (Mus musculus) | % | 0 |
| COc1ccc([C@H]2C[C@@H](C(F)F)n3nc(-c4ccc(C(=O)N5CCNCC5)cc4)cc3N2)cc1OC | Mouse TLR7 (Mus musculus) | % | 0 |
| COc1ccc([C@@H]2C[C@H](C(F)F)n3nc(-c4ccc(C(=O)N5CCNCC5)cc4)cc3N2)cc1OC | Mouse TLR7 (Mus musculus) | % | 14 |

###

- experimental-target: Human TLR4 (Homo sapiens)
- Sequence (O00206 24-839): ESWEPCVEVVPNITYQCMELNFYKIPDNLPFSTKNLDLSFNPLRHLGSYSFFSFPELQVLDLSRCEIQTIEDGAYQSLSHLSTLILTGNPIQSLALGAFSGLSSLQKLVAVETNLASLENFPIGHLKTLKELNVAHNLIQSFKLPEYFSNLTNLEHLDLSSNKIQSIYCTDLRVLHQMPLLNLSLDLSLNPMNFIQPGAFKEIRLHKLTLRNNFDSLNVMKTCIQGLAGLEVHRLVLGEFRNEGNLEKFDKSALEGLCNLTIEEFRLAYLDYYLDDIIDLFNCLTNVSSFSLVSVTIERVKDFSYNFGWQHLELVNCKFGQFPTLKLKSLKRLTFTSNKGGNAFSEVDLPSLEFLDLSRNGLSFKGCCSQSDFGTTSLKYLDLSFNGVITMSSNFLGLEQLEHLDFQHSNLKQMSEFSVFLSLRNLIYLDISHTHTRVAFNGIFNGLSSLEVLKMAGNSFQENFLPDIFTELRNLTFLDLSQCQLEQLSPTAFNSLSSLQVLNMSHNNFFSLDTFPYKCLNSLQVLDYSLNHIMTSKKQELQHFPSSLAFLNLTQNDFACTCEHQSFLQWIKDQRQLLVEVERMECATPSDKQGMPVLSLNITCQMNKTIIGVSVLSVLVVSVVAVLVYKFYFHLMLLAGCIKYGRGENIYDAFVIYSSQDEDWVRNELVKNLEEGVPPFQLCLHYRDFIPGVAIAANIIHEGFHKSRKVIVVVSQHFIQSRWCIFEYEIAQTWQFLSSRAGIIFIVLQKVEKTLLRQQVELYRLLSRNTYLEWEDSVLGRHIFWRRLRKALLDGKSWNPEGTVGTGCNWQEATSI
- Sequence (Q9Y6Y9 19-160 partner): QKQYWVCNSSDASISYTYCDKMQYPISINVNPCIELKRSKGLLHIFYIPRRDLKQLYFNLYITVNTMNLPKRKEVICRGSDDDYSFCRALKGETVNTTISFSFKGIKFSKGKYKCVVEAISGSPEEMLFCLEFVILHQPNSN
- measurement-protocol: HEK-293 NF-kappaB luciferase reporter assay, LPS stimulus
- Format: cell-based
- Set-up: engineered to stably and individually express human TLR4, TLR7 or TLR9 full-length ORF cDNAs; expressed in transfected cells; host or cells: HEK-293 (ATCC) with ELAM-1 NF-kappaB luciferase reporter
- study-conditions: ligand LPS, analyte NFkB-luciferase

| compound | IC50 |
| --- | --- |
| COc1ccc([C@@H]2C[C@H](C(F)(F)F)n3nc(-c4ccc(C(=O)N5CCNCC5)cc4)cc3N2)cc1OC [ER-892887] | > 10 µM |

###

- experimental-target: Mouse TLR7 (Mus musculus)
- Construct: endogenous in cells; host or cells: female BALB/c mice, in vivo
- Sequence (P58681 27-1050): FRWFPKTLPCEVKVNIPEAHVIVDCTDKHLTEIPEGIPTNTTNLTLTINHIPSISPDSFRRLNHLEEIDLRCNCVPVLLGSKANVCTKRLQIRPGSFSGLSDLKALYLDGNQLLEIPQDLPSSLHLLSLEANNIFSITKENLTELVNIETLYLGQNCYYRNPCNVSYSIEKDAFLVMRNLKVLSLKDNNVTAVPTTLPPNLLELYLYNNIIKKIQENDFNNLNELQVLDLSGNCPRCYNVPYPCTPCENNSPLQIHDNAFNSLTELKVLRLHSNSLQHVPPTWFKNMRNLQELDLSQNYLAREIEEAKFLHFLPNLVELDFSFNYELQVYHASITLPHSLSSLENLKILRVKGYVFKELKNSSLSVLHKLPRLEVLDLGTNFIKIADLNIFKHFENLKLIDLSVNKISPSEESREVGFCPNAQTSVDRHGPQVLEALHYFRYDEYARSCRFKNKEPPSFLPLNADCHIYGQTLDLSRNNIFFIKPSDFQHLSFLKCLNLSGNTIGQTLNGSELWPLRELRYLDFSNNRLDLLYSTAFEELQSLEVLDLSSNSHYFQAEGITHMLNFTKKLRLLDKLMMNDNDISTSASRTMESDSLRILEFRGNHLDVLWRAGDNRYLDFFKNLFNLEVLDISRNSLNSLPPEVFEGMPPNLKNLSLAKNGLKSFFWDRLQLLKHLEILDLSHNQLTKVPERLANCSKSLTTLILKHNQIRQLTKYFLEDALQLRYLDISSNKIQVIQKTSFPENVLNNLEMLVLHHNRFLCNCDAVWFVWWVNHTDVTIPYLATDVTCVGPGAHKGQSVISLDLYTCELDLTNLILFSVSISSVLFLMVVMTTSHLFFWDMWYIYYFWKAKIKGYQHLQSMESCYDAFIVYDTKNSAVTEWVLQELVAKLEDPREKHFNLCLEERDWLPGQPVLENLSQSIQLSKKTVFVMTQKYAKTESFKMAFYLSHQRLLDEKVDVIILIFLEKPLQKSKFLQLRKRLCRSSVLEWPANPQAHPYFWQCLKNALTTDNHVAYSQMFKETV
- measurement-protocol: Short-term in vivo (STIV) assay: plasma IL-6 after s.c. R848
- study-conditions: time point 13 hr; dose 100 mg/kg oral
Label rule, in plain words: % Suppression vs. Vehicle of 20% and up is 1, under 20% is 0.

| molecule | assigned-label |
| --- | --- |
| COc1ccc([C@@H]2C[C@H](C(F)F)n3nc(-c4ccc(C(=O)N5CCNCC5)cc4)cc3N2)cc1OC [ER-895302] | 0 |
| COc1ccc([C@H]2C[C@@H](C(F)F)n3nc(-c4ccc(C(=O)N5CCNCC5)cc4)cc3N2)cc1OC [ER-895303] | 0 |
| Cc1nn(C)cc1[C@@H]1C[C@H](C(F)(F)F)n2nc(-c3ccc(NC(N)=O)cc3)cc2N1 [ER-894595] | 0 |
| COc1ccc([C@@H]2C[C@H](C(F)(F)F)n3nc(-c4ccc(C(=O)N5CCNCC5)cc4)cc3N2)cc1OC [ER-892887] | 1 |
| COc1ccc([C@@H]2C[C@H](C(F)(F)F)n3nc(C4CCNCC4)cc3N2)cc1OC [ER-885681] | 0 |
